targetDesc: MALT1 (Homo sapiens)
Sequence (Q9UDY8 1-824): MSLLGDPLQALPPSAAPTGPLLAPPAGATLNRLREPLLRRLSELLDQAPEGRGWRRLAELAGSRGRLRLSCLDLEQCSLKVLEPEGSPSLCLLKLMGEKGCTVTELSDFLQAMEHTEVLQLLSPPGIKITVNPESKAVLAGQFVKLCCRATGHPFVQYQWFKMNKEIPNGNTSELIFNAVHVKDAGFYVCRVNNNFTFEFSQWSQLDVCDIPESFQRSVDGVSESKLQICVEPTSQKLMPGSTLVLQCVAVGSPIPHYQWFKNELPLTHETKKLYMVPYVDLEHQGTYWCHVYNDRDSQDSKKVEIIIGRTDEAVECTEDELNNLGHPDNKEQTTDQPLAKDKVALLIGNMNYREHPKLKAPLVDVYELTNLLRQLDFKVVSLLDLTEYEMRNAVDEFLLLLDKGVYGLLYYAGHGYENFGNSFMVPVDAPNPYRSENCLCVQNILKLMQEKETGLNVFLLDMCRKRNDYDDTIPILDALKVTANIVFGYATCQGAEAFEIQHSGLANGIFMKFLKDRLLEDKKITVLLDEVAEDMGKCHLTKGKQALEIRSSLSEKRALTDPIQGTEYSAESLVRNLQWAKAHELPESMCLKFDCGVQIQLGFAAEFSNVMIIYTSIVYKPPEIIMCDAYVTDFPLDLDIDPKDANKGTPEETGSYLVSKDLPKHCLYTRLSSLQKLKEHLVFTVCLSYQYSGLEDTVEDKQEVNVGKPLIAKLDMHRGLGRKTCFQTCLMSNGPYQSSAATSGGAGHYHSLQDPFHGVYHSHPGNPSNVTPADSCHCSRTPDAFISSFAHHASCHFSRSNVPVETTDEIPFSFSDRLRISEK
pIC50: −log10 of the molar value.
assayMetric: pIC50

Input line: pIC50 lookup needed for COc1ccc2cnn(C)c2c1NS(=O)(=O)c1ccc(-n2nccc2C2CC2)nc1 , thanks.
Output line: < 5.60

Input line: Here is the next compound: COc1ccc2cnn(C)c2c1NS(=O)(=O)c1ccc(-c2nc(C)n(C)n2)nc1
Output line: < 5.60

Input line: Here is the next compound: Cn1ncc2cccc(NS(=O)(=O)c3ccc(N4CC(C)(C)OC4=O)nc3)c21
Output line: < 5.60

Input line: Here is the next compound: COC1(c2cnn(-c3ccc(S(=O)(=O)Nc4cccc5cnn(C)c45)cn3)c2)CC1
Output line: < 5.60

Input line: Here is the next compound: Cn1[nH]c2cccc(NS(=O)(=O)c3ccc(-n4cc(C(F)(F)F)cn4)nc3)c2c1=O
Output line: < 5.60

Input line: Here is the next compound: COc1ncc2cnn(C)c2c1NS(=O)(=O)c1ccc(-n2ccc(C3CC3)n2)nc1
Output line: > 6.40

Input line: Here is the next compound: COc1ccc2cnn(C)c2c1NS(=O)(=O)c1ccc(-n2nccc2OC)nc1
Output line: > 6.40

Input line: Here is the next compound: COc1ccc2c(F)nn(C)c2c1NS(=O)(=O)c1ccc(-n2cc(C(F)(F)F)cn2)nc1
Output line: > 6.40

----------
Target protein (sequence): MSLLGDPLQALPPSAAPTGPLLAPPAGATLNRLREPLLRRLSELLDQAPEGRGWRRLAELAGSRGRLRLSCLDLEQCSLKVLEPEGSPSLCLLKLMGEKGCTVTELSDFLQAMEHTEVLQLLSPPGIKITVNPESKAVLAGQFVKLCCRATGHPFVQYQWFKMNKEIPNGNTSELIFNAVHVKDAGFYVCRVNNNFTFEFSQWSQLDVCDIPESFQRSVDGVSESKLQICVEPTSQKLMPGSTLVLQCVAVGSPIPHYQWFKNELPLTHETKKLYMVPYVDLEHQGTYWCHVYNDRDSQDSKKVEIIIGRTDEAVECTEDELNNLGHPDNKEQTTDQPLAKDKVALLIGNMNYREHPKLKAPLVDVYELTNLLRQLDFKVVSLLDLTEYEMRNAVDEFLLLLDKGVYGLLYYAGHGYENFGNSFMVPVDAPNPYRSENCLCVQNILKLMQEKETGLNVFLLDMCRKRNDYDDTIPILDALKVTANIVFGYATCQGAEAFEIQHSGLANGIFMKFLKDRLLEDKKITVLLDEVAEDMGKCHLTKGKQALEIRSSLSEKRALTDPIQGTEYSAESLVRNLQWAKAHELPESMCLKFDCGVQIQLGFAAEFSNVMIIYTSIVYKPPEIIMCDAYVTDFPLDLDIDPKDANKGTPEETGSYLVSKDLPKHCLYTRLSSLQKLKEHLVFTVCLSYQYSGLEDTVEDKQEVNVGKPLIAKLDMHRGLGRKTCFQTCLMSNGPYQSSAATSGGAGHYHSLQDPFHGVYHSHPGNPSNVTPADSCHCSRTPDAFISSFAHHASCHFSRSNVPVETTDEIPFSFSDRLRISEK
pIC50: −log10 of the molar value.
assayMetric: pIC50

Input line: pIC50 lookup needed for Cc1nn(C)c(C)c1-c1ccc(S(=O)(=O)Nc2cccc3cnn(C)c23)cn1 , thanks.
Output line: < 5.60

Input line: Here is the next molecule: COc1ccc2cnn(C)c2c1NS(=O)(=O)c1ccc(-n2nc(C)c(Cl)c2C)nc1
Output line: > 6.40

Input line: Here is the next molecule: Cc1cc(-c2ccc(S(=O)(=O)Nc3cccc4cnn(C)c34)cn2)on1
Output line: < 5.60

Input line: Here is the next molecule: Cn1ncc2cccc(NS(=O)(=O)c3ccc(-n4cc(C(C)(C)C)cn4)nc3)c21
Output line: < 5.60

Input line: Here is the next molecule: Cc1cc(NS(=O)(=O)c2ccc(-n3cc(C(F)(F)F)cn3)nc2)c2c(cnn2C)c1
Output line: 5.60 to 6.00

Input line: Here is the next molecule: COc1ccc2cnn(C)c2c1NS(=O)(=O)c1ccc(-n2cc(C(F)(F)F)cn2)nc1
Output line: > 6.40

Input line: Here is the next molecule: Cn1ncc2cccc(NS(=O)(=O)c3ccc(-c4cnn(CCO)c4)nc3)c21
Output line: < 5.60

Input line: Here is the next molecule: Cn1ncc2cccc(NS(=O)(=O)c3ccc(-c4cnc(C(F)F)s4)nc3)c21
Output line: 6.00 to 6.40
